System: Escherichia coli TOP10
method-description: shrunken log2 fold change of peptide-encoding DNA abundance (4.5 h post-induction vs induction); higher = less antimicrobial activity (less host growth inhibition)
study-conditions: time post-induction: 4.5 h; library: site-saturation at positions 5, 18, 19, 20
endpoint-name: shrunken log2 fold change

query-sequence: RRIRDRPPRLPRPRPRPKGIPRP
endpoint-name: shrunken log2 fold change
readout-number: 0.0238

query-sequence: RRIRMRPPRLPRPRPRPKCHPRP
endpoint-name: shrunken log2 fold change
readout-number: 0.335

query-sequence: RRIRKRPPRLPRPRPRPPWGPRP
endpoint-name: shrunken log2 fold change
readout-number: 0.501

query-sequence: RRIRARPPRLPRPRPRPVCIPRP
endpoint-name: shrunken log2 fold change
readout-number: 0.11

query-sequence: RRIRPRPPRLPRPRPRPWGQPRP
endpoint-name: shrunken log2 fold change
readout-number: 0.0568

query-sequence: RRIRNRPPRLPRPRPRPVHGPRP
endpoint-name: shrunken log2 fold change
readout-number: -0.0581

query-sequence: RRIRTRPPRLPRPRPRPPTHPRP
endpoint-name: shrunken log2 fold change
readout-number: 0.176

query-sequence: RRIRERPPRLPRPRPRPKQAPRP
endpoint-name: shrunken log2 fold change
readout-number: 0.156

query-sequence: RRIRARPPRLPRPRPRPIHLPRP
endpoint-name: shrunken log2 fold change
readout-number: -0.633

query-sequence: RRIRWRPPRLPRPRPRPGVFPRP
endpoint-name: shrunken log2 fold change
readout-number: 0.224

query-sequence: RRIRKRPPRLPRPRPRPLTPPRP
endpoint-name: shrunken log2 fold change
readout-number: 0.658

query-sequence: RRIRDRPPRLPRPRPRPITEPRP
endpoint-name: shrunken log2 fold change
readout-number: -0.0351

query-sequence: RRIRVRPPRLPRPRPRPWEQPRP
endpoint-name: shrunken log2 fold change
readout-number: -0.355

query-sequence: RRIRQRPPRLPRPRPRPMCFPRP
endpoint-name: shrunken log2 fold change
readout-number: -0.352

query-sequence: RRIRPRPPRLPRPRPRPKQHPRP
endpoint-name: shrunken log2 fold change
readout-number: -0.0393

query-sequence: RRIRLRPPRLPRPRPRPHLWPRP
endpoint-name: shrunken log2 fold change
readout-number: 0.0492

query-sequence: RRIRGRPPRLPRPRPRPQWGPRP
endpoint-name: shrunken log2 fold change
readout-number: 0.376

query-sequence: RRIRARPPRLPRPRPRPMFEPRP
endpoint-name: shrunken log2 fold change
readout-number: 0.3

query-sequence: RRIRVRPPRLPRPRPRPMCHPRP
endpoint-name: shrunken log2 fold change
readout-number: -0.0674

query-sequence: RRIRPRPPRLPRPRPRPRIKPRP
endpoint-name: shrunken log2 fold change
readout-number: -0.138

query-sequence: RRIRMRPPRLPRPRPRPPDAPRP
endpoint-name: shrunken log2 fold change
readout-number: 1.53

query-sequence: RRIRFRPPRLPRPRPRPPHQPRP
endpoint-name: shrunken log2 fold change
readout-number: 0.301

----------
Test system: Escherichia coli TOP10;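 also: peptides expressed intracellularly from a pBAD plasmid library in pooled LB shake-flask culture, induced with 0.3% L-arabinose, DNA abundance read by NGS, three biological replicates, DESeq2 with apeglm shrinkage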
method-description: shrunken log2 fold change of peptide-encoding DNA abundance (4.5 h post-induction vs induction); higher = less antimicrobial activity (less host growth inhibition)
study-conditions: time post-induction: 4.5 h; library: site-saturation at positions 5, 18, 19, 20
This section presents sequences with their documented shrunken log2 fold change values.

query-sequence: RRIRKRPPRLPRPRPRPRPSPRP
shrunken log2 fold change: 0.585
--
query-sequence: RRIRGRPPRLPRPRPRPPLFPRP
shrunken log2 fold change: 0.974
--
query-sequence: RRIRERPPRLPRPRPRPQWIPRP
shrunken log2 fold change: -0.0767
--
query-sequence: RRIRKRPPRLPRPRPRPVMRPRP
shrunken log2 fold change: 0.74
--
query-sequence: RRIRFRPPRLPRPRPRPKMEPRP
shrunken log2 fold change: -0.028
--
query-sequence: RRIRIRPPRLPRPRPRPKIAPRP
shrunken log2 fold change: 0.00729
--
query-sequence: RRIRRRPPRLPRPRPRPTVHPRP
shrunken log2 fold change: 0.231
--
query-sequence: RRIRIRPPRLPRPRPRPAYGPRP
shrunken log2 fold change: -0.253
--
query-sequence: RRIRTRPPRLPRPRPRPYYLPRP
shrunken log2 fold change: -1.28
--
query-sequence: RRIRTRPPRLPRPRPRPEMEPRP
shrunken log2 fold change: 0.0702
--
query-sequence: RRIRWRPPRLPRPRPRPQCHPRP
shrunken log2 fold change: -0.13
--
query-sequence: RRIRRRPPRLPRPRPRPHQHPRP
shrunken log2 fold change: 0.0389
--
query-sequence: RRIRWRPPRLPRPRPRPFEEPRP
shrunken log2 fold change: 0.43
--
query-sequence: RRIRKRPPRLPRPRPRPTCTPRP
shrunken log2 fold change: 0.314
--
query-sequence: RRIRRRPPRLPRPRPRPLVVPRP
shrunken log2 fold change: 0.312
--
query-sequence: RRIRRRPPRLPRPRPRPPPQPRP
shrunken log2 fold change: 1.27
--
query-sequence: RRIRDRPPRLPRPRPRPGAKPRP
shrunken log2 fold change: 0.592
--
query-sequence: RRIRHRPPRLPRPRPRPLNVPRP
shrunken log2 fold change: -0.588
--
query-sequence: RRIRVRPPRLPRPRPRPVKFPRP
shrunken log2 fold change: -0.133
